This collection of values is drawn from patent EP0076622A1.

test system: Nematospiroides dubius; experiment: Oral activity against experimental infections of Nematospiroides dubius in the mouse (worm numbers of treated vs untreated control animals); format: in vivo; details: Heligmosomoides polygyrus, po, Dose 200 mg/kg (p.o.), calculated from worm numbers of treated and control animals
Returns met if the recorded inhibition in vivo at 200 mg/kg is greater than or equal to 60%, and not met otherwise.

Example entries begin here.
• CSC(=Nc1cccc(C2CN3CCSC3=N2)c1)Nc1cccc(C)c1 (centres unmarked) [Example 57] = met
• CSC(=Nc1cccc(C2CN3CCSC3=N2)c1)Nc1ccc(F)cc1 (centres unmarked) [Example 14] = met
• CSC(=Nc1cccc(C2CN3CCSC3=N2)c1)Nc1cccc(F)c1 (centres unmarked) [Example 15] = met
• CSC(=Nc1cccc(C2CN3CCSC3=N2)c1)Nc1ccc(C)c(C)c1 (centres unmarked) [Example 56] = not met
• CSC(=Nc1cccc(C2CN3CCSC3=N2)c1)NCc1ccccc1 (centres unmarked) [Example 75] = not met
• CSC(=Nc1cccc(C2CN3CCSC3=N2)c1)NC1CCCCC1 (centres unmarked) [Example 76] = not met

Could you verify whether the entry CSC(=Nc1cccc(C2CN3CCSC3=N2)c1)Nc1ccc(Cl)cc1 (centres unmarked) [Example 17] shows inhibition in vivo at 200 mg/kg of no less than 60%?
met

---

system: Nematospiroides dubius; experiment: Oral activity against experimental infections of Nematospiroides dubius in the mouse (worm numbers of treated vs untreated control animals); assay type: in vivo; settings: Heligmosomoides polygyrus, po, Dose 200 mg/kg (p.o.), calculated from worm numbers of treated and control animals
readout_label: inhibition in vivo at 200 mg/kg (%)
Form entry: value (%) — number only.

• CSC(=Nc1cccc(C2CN3CCSC3=N2)c1)Nc1cccc([N+](=O)[O-])c1 (centres unmarked) = 95
• CSC(=Nc1cccc(C2CN3CCSC3=N2)c1)Nc1ccc(C)cc1 (centres unmarked) = 0
• CSC(=Nc1cccc(C2CN3CCSC3=N2)c1)Nc1ccccc1 (centres unmarked) = 99
• CSC(=Nc1cccc(C2CN3CCSC3=N2)c1)Nc1cccc(Cl)c1 (centres unmarked) = 100

Please examine the following record next.
inhibition in vivo at 200 mg/kg for CCSC(=Nc1cccc(C2CN3CCSC3=N2)c1)Nc1ccccc1 (centres unmarked) ?
92
